Items are presented alongside their recorded inhibition of SARS-CoV-2 cytopathic effect.
- Tested on: Vero E6 infected with SARS-CoV-2
- Experimental protocol: inhibition of SARS-CoV-2 cytopathic effect; higher = more antiviral protection, active = above 15
- Condition description: 1 nM; 48 h
The figure you give is taken to be in %; do not add the unit.

Q: Reported inhibition of SARS-CoV-2 cytopathic effect for Vero E6 infected with SARS-CoV-2, given CC1(C)CCC(C)(C)c2c1cc(C(=O)Nc1cc(F)c(C(=O)O)c(F)c1)c(O)c2Cl ?
A: -1.01

###

- System: Vero E6 infected with SARS-CoV-2
- Experimental protocol: inhibition of SARS-CoV-2 cytopathic effect; higher = more antiviral protection, active = above 15
- Condition description: 8.33 nM; 48 h
Observed property: inhibition of SARS-CoV-2 cytopathic effect (%)
The figure you give is taken to be in %; do not add the unit.

Completed entries (count: 3):
>>> print(df.to_string())
                                   compound                         tested_on  measure_unit  observed_value
0  C=C1CC[C@@H]2[C@](C)(CO)[C@H](O)CC[C@@]2(C)[C@@H]1C/C=C1/C(=O)OC[C@H]1O [andrographolide]  Vero E6 infected with SARS-CoV-2             %            -2.2
1  CC(C)NCC(O)COc1cccc2ccccc12 (centres undefined)  Vero E6 infected with SARS-CoV-2             %            1.94
2               CCC1(c2c[nH]cn2)Cc2ccccc2C1  Vero E6 infected with SARS-CoV-2             %            2.54

Moving on to another compound below.
Q: Record request: inhibition of SARS-CoV-2 cytopathic effect value, item CC(=O)O[C@H]1CC[C@@]2(C)C(=CC[C@@H]3[C@@H]2CC[C@]2(C)C(=O)CC[C@@H]32)C1 [prasterone-acetate]
A: 2.86
